These entries and their values trace back to patent US12570642B2.

target: GLP-1R (Homo sapiens, UniProt P43220); assay: GLP-1R Activation - cAMP Assay; format: cell-based; conditions: […]; each compound run on one of the two cAMP assays (Assay 1 or Assay 2, not specified)
Sequence (P43220 24-463): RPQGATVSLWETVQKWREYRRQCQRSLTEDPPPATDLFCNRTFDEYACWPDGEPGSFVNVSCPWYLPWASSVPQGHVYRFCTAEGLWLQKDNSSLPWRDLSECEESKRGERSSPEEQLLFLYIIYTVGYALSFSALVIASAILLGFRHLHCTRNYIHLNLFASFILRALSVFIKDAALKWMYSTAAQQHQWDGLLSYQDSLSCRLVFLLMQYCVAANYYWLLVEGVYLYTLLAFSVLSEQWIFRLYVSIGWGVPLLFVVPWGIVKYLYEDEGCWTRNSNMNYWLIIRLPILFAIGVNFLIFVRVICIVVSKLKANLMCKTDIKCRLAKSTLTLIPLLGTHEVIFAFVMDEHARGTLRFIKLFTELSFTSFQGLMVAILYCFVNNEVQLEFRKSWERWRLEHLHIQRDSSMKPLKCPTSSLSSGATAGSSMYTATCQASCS
pEC50: −log10 of the molar value.
We use 7 as the dividing line for pEC50: on or above the line is criterion met, below is criterion not met.

Solved cases below.
CC(C)(C)OC(=O)N[C@@H]1COC[C@@H]1n1c(Cc2cc(F)c(-c3cccc(OCc4ccc(C#N)cc4F)n3)cc2F)nc2ccc(C(=O)O)cc21 (racemic)    criterion met
CC(=O)N[C@@H]1COC[C@@H]1n1c(Cc2cc(F)c(-c3cccc(OCc4ccc(C#N)cc4F)n3)cc2F)nc2ccc(C(=O)O)cc21    criterion met
N#Cc1ccc(COc2cccc(-c3cc(F)c(Cc4nc5ccc(C(=O)O)cc5n4[C@H]4CNC(=O)C4)cc3F)n2)c(F)c1    criterion met

Now take the following molecule into account.
Hi team, for COC(=O)N1C[C@H](OC)[C@H](n2c(Cc3cc(F)c(-c4cccc(OCc5ccc(C#N)cc5F)n4)cc3F)nc3ccc(C(=O)O)cc32)C1 , is the recorded pEC50 at or above 7?
criterion not met

---

Molecular target: UniProtKB P43220
Assay: GLP-1R Activation - cAMP Assay
Assay type: cell-based
Settings: cAMP increase in CHO cells stably expressing GLP-1R; each compound run on one of the two cAMP assays (Assay 1 or Assay 2, not specified)
Procedure: GLP-1R Activation—cAMP Assay 1 GLP-1R activation by compounds of the present disclosure were quantified by measuring cAMP increase in CHO cells stably expressing GLP-1R (MultiSpan product #C1267-1a). […] The tested GLP-1 compound was added to the cells in a 10-point dose response followed by a 30 minutes incubation at 37° C., 5% CO2. cAMP concentration increase was then detected using Cisbio's cAMP Gs Dynamic Kit (product #62AM4PEC) according to the manufacturer's protocol. […]
Reported endpoint: EC50

Reference set (3 entries):
CC1(C)COC[C@H]1n1c(Cn2cc(Cl)c(-c3cccc(OCc4ccc(C#N)cc4F)n3)cc2=O)nc2c(F)cc(C(=O)O)cc21    0.236 nM
COCCn1c(Cc2cc(F)c(-c3ccc(F)c(OCc4cnc(-n5ccnn5)cc4Cl)n3)cc2F)nc2ccc(C(=O)O)cc21    0.21 nM
N#Cc1ccc(COc2cccc(-c3cc(F)c(Cc4nc5ccc(C(=O)O)cc5n4C4COC[C@@H]4CO)cc3F)n2)c(F)c1 (mixture of isomers)    0.056 nM

Given the entry COCCn1c(Cc2cc(F)c(-c3cccc(OCc4ccc(-c5cccnc5)cc4F)n3)cc2F)nc2ccc(C(=O)O)cc21 , report its measured EC50.
1.23 nM

Given the entry COC(=O)N1Cc2ccc(COc3nc(-c4cc(F)c(Cc5nc6ccc(C(=O)O)cc6n5C[C@@H]5CCO5)cc4F)ccc3F)cc2C1 , report its measured EC50.
0.088 nM

Given the entry Cn1ncc(-c2ccc(COc3cccc(-c4cc(F)c(Cc5nc6ccc(C(=O)O)cc6n5[C@@H]5COCC5(C)C)cc4F)n3)c(F)c2)n1 , report its measured EC50.
0.132 nM

Given the entry COCCn1c(Cc2cc(C)c(-c3cccc(OCc4ccc(C#N)cc4F)n3)cc2Cl)nc2c(F)cc(C(=O)O)cc21 , report its measured EC50.
4.8 nM

Given the entry CC1(C)COC[C@H]1n1c(Cc2cc(F)c(-c3cccc(OCc4ccc(C#N)cc4)n3)cc2F)nc2cnc(C(=O)O)cc21 , report its measured EC50.
3.02 nM

Given the entry N#Cc1ccc(COc2cccc(-c3cc(F)c(Cc4nc5ccc(C(=O)O)cc5n4[C@@H]4COC[C@H]4C(F)F)cc3F)n2)c(F)c1 (single isomer, unassigned) [Example 261] , report its measured EC50.
4.08 nM

Given the entry CC1(C)COC[C@H]1n1c(Cc2cc(F)c(-c3cccc(OCc4c(F)cccc4F)n3)cc2F)nc2ccc(C(=O)O)cc21 , report its measured EC50.
0.614 nM

Given the entry COCCn1c(Cc2cc(F)c(-c3cccc(OCc4cnc(-c5cnn(C)c5)cn4)n3)cc2F)nc2ccc(C(=O)O)cc21 , report its measured EC50.
4.02 nM

Given the entry O=C(O)c1ccc2nc(Cc3cc(F)c(-c4cccc(OCc5ccc6ncsc6c5)n4)cc3F)n(C[C@@H]3CCO3)c2c1 , report its measured EC50.
0.392 nM

Given the entry CC1(C)COC[C@H]1n1c(Cc2cc(F)c(-c3ccnc(OCc4ccc(C#N)cc4)n3)cc2F)nc2ccc(C(=O)O)cc21 , report its measured EC50.
0.132 nM
